Every entry's value here was drawn from the supplement of paper PMC6555819.

test system: PPARg:RXRa DBDmut IVT, anti-RXR (DBD mutation: RXRa K156A/R161A, NR concentration 270 nM, RXRa partner concentration 90 nM); experiment: PBM binding z-score (relative to random genomic background probes); higher = stronger binding; sequences stand for … in GC…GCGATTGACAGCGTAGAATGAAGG
Assignment: determine reported PBM binding z-score for the given sequences.
// no unit, no text: just the number

Which PBM binding z-score is reported for this sequence? ACTTACGGATCAACGAGGTTATAGCACGCGTATA
0.402

Repeat for the following sequence: TCTTGTAGCTCAAAGGTTAAGAAAGCCGAAGCCT
1.21

Repeat for the following sequence: GCTGCTAGGTCAACTGATGGTCAGCAAAAGCTCG
4.86

Repeat for the following sequence: ACAGACAGGTGACGAAGGTAACTCAGGCTATCAT
0.762

Repeat for the following sequence: GCTAGCAGGCCATTTGGGTCACTGAATGACGGGC
1.8

Repeat for the following sequence: AGTAAAAGTTCAGGACGAGGTAACGTAAAGCACG
-0.481

Repeat for the following sequence: AGAAAGAGGTTATACGTAGATCAGGGAAGAAAGT
1.97

Repeat for the following sequence: ATATGTAGTTTACATCCGGGTCATTCAGGCTATG
1.36

Repeat for the following sequence: TTACCAAGGTGAGCTGAGGTCGTTGAACCAACTC
0.903

Repeat for the following sequence: GATATAGGGTCAAGGCCAGAGTACGCGTATTGAT
4

Repeat for the following sequence: CCTACTGGGCCATTCATAGGTCATTGATCATATG
4.46

Repeat for the following sequence: CCTGCTAGGTCAAGGTCAGCTAATCTACAGTATG
4.9

Repeat for the following sequence: TAGCCTAGGTCCGATCGGGCCAGTATACGCTATA
-1.07

Repeat for the following sequence: ATCTCTAGGTAAGGTTCAGTGAAAGATCGATAGA
1.52

Repeat for the following sequence: CGTCCAACGTCAATGCTAGGTCAGTGAAAGCATT
0.0923

Repeat for the following sequence: TCATATACGTAAATGCTAGGTGAAAGTCCGATCT
2.16

Repeat for the following sequence: TGAATGAGGTTAAAGATCGGGGAACGTGGCGTCG
2.68

Repeat for the following sequence: GCATATAGGTAATGCAAGGTGAAAGTCCGATTGT
4.12

Repeat for the following sequence: ATCTCTAGGTAAGGCTCAGTTCAGTGAAGAACGC
1.94

Repeat for the following sequence: CCTAGATGGTCAAGGTCACACACGCTATAGGTAC
1.66

---

system: RARg:RXRa (NR concentration 270 nM, RXRa partner concentration 90 nM); assay: PBM binding z-score (relative to random genomic background probes); higher = stronger binding; sequences stand for … in GC…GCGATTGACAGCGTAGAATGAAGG
Rule: T for PBM binding z-score not less than 2, F for anything less.

Hi, just wondering whether ATATGAAGGTTACATCCGGGTCATTCAGGCTATG shows PBM binding z-score of 2 or higher.
T

Repeat for the following sequence: ATATGTAGGTTATCGGGTCTTTCAGTTTGCGCAT
F

Repeat for the following sequence: TAGCCTAGATCATTCAGGGGCCAGTATAGAAAGC
F

Repeat for the following sequence: ACTATTAGTTGACTTAGGGAAACCGATACGACGC
F

Repeat for the following sequence: ATCGAAAGGTCGTGAGGTGAGTGTACAGAAAGGC
T

Repeat for the following sequence: CAGACTAGGTCAAGAGGTCAAAGTCCGCTTCCCG
T

Repeat for the following sequence: ACTAGCAGGCCTAGTTTGGGTCACTCAAACAAAG
F

Repeat for the following sequence: TCGAGTAGGTTACCGATGGGGCATTCAGCTTTCT
F

Repeat for the following sequence: CCTACTGGGCCGAAAAGGTCATTGATGCCGATAA
T

Repeat for the following sequence: ATCGAAAGGTAGTGAGGTGAGTATACAGAAAGGC
F

Repeat for the following sequence: ACTAGTTGGTCAGCTGAGGTCAAACACAATTCGG
T

Repeat for the following sequence: TCGAGTAGGTTAGGGGCCTTCAGAATGGCGTCGA
F

Repeat for the following sequence: CCGACTGGGCCACGAAAGGTCATTGATTCAGTGA
T

Repeat for the following sequence: GCTATTAGTTGAAAGGGCAACCGTATGATTCTCG
F

Repeat for the following sequence: CCAGACAGGTGAGAAGGTAAGTCAGCCTCGATTA
F

Repeat for the following sequence: CGAACTAGGTCATCCATGACAGTGAATACATTGA
T

Repeat for the following sequence: TCTAGTTGGTCACGGAGGTCACCCACGACGGGTA
T

Repeat for the following sequence: CCTAGCAGGCCAGGGTCTCTCAAGCATTTCGCTT
F

Repeat for the following sequence: CGAAGTAGGTCAAGGACAGTGAATCTCCGCACGC
T

Repeat for the following sequence: GGGACGAGGGCAAGTTGATAGCAGAGTTTGATGG
F

Repeat for the following sequence: TCATGTAGGTAAAGGTGAAAGTCGAACGATATGA
F

Repeat for the following sequence: TCTGCTAGGTCAGCTGGTCAGCTAACGAGCTGCC
T

Repeat for the following sequence: CCGACCGGGGCAAAGGTTACCATACTCAGTACGA
T

Repeat for the following sequence: TCTATTAGTTGATTAGGGCATCCGAAACAGCGGA
F

Repeat for the following sequence: TCTAGCAGGCCAGAGGGTCACTCACGAGGTACGG
T

Repeat for the following sequence: TTACCAAGGTGAAAGGTTGTTGATGCACGCCTTG
F

Repeat for the following sequence: ATCTCTAGGTAAAGTACAGTGAAAGATCGATAGA
F

Repeat for the following sequence: GCTAGTTGGTCAGTAAAAGGTCCCACACCGGTCG
F

Repeat for the following sequence: GCATATAGGTAATACAAGGTGAAAGTTCGATTGT
F

Repeat for the following sequence: ATCGCAAGGTCGACGAGGTGAGTATACACCGTTT
T

Repeat for the following sequence: GCACCAAGGTGAATAGGTCGTTGATGAGTAGGCG
T

Repeat for the following sequence: ACTAGCAGGCCAAGGGTCAATCAAGATTAGTCCG
T

Repeat for the following sequence: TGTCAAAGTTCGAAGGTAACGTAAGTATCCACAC
T

Repeat for the following sequence: CAAACTAGGTGACAGAGGTCAAAGTCCGTGCGTA
T

Repeat for the following sequence: GGAACGAGGACAAGTTGATAGCAGAGTTTGATGG
F

Repeat for the following sequence: TTACCAAGGTGAGCTGAGGTCGTTGCTCCAACTC
F

Repeat for the following sequence: GCTATTAGTTGTAAGGGCAACCGAATGATTCTCG
F

Repeat for the following sequence: TCTATTAGTTGAAGTGCAACCGACGAGTCCGTTT
F

Repeat for the following sequence: GGAACGAGGGCCTTCGAGTTGATAGCATGGCGAT
F

Repeat for the following sequence: ACTTACGGGTTAACGAGGTTATAGCACGCGTATA
T

Repeat for the following sequence: CCTTACGGGTCAAGGTCATAGCACGGGTGGTACG
T

Repeat for the following sequence: GGAACAAGGGCAAGTTGATAGCAGAGTTTGATGG
F

Repeat for the following sequence: CCAACGAGGGCATGAGTTGATAGCAAATGCCGAT
F
